METHOD: Plasma pharmacokinetics with loading dose and weekly or twice weekly maintenance dosing, fed (Example 5)
Format: in vivo, human
RUN CONDITIONS: human, plasma, oral, Panel III (150 mg BID Days 1-2, then 300 mg Q7D; SF2a/b, fed), Day 24; read-out: Median tmax (min-max)
OUTCOME MEASURE: Tmax
Quote the value and follow it with the unit of measurement.

Prompt: Look at this compound and give its reported Tmax. COc1cc(NC(C(=O)c2c[nH]c3ccc(OC(F)(F)F)cc23)c2ccc(Cl)cc2OC)cc(S(C)(=O)=O)c1 (stereo not shown)
Completion: 7 h

###

METHOD: Effect of food on plasma pharmacokinetics after single oral dose of SF2a/b (Example 2)
Format: in vivo, human
RUN CONDITIONS: both sexes, human, plasma, oral, 800 mg, Treatment D: single 800 mg (SF2b), fasted; read-out: Cmax, Geo. Mean
OUTCOME MEASURE: Cmax (ng/mL)
One number for each entry, in ng/mL.

Prompt: Look at this compound and give its reported Cmax. COc1cc(NC(C(=O)c2c[nH]c3ccc(OC(F)(F)F)cc23)c2ccc(Cl)cc2OC)cc(S(C)(=O)=O)c1 (stereo not shown) [Compound (a)]
Completion: 1150

###

METHOD: Effect of food on plasma pharmacokinetics after single oral dose of SF2a/b (Example 2)
Assay type: in vivo, human
RUN CONDITIONS: both sexes, human, plasma, oral, 800 mg, 800 mg SF2b, fed, low-fat, low-calorie breakfast; read-out: Cmax, Geometric LS Means Treatment L
OUTCOME MEASURE: Cmax (ng/mL)
One number for each entry, in ng/mL.

Prompt: Look at this molecule and give its reported Cmax. COc1cc(NC(C(=O)c2c[nH]c3ccc(OC(F)(F)F)cc23)c2ccc(Cl)cc2OC)cc(S(C)(=O)=O)c1 (stereo not shown)
Completion: 2060

###

METHOD: Plasma pharmacokinetics with loading dose and weekly or twice weekly maintenance dosing, fed (Example 5)
Type: in vivo, human
RUN CONDITIONS: human, plasma, oral, 450 mg, Panel II (450 mg BID Days 1-2, then 450 mg Q3D/Q4D; SF2a/b, fed), Day 3; read-out: Mean AUC24 h (SD)
OUTCOME MEASURE: AUC(0-t) (µg·h/mL)
Numbers only, in µg·h/mL.

Prompt: Look at this compound and give its reported AUC(0-t). COc1cc(NC(C(=O)c2c[nH]c3ccc(OC(F)(F)F)cc23)c2ccc(Cl)cc2OC)cc(S(C)(=O)=O)c1 (stereo not shown)
Completion: 110

###

METHOD: Effect of food on plasma pharmacokinetics after single oral dose of SF2a/b (Example 2)
Assay type: in vivo, human
RUN CONDITIONS: both sexes, human, plasma, oral, 800 mg, 800 mg SF2b, fasted; linear mixed effects model (Table 5A); read-out: Cmax, Geometric Mean Treatment D
OUTCOME MEASURE: Cmax
Quote the value and follow it with the unit of measurement.

Prompt: Look at this compound and give its reported Cmax. COc1cc(NC(C(=O)c2c[nH]c3ccc(OC(F)(F)F)cc23)c2ccc(Cl)cc2OC)cc(S(C)(=O)=O)c1 (stereo not shown) [Compound (a)]
Completion: 1220 ng/mL

###

METHOD: Plasma pharmacokinetics with loading dose and weekly or twice weekly maintenance dosing, fed (Example 5)
Assay type: in vivo, human
RUN CONDITIONS: human, plasma, oral, Panel III (150 mg BID Days 1-2, then 300 mg Q7D; SF2a/b, fed), Day 24; read-out: Mean AUC24 h (SD)
OUTCOME MEASURE: AUC(0-t) (ng·h/mL)
Answers are plain numbers, in ng·h/mL.

Prompt: Look at this compound and give its reported AUC(0-t). COc1cc(NC(C(=O)c2c[nH]c3ccc(OC(F)(F)F)cc23)c2ccc(Cl)cc2OC)cc(S(C)(=O)=O)c1 (stereo not shown) [Compound (a)]
Completion: 37200

###

METHOD: Effect of food on plasma pharmacokinetics after single oral dose of SF2a/b (Example 2)
Format: in vivo, human
RUN CONDITIONS: both sexes, human, plasma, oral, 200 mg, Treatment F: single 200 mg (SF2b), fasted; read-out: Cmax, Median
OUTCOME MEASURE: Cmax (ng/mL)
Numbers only, in ng/mL.

Prompt: Look at this compound and give its reported Cmax. COc1cc(NC(C(=O)c2c[nH]c3ccc(OC(F)(F)F)cc23)c2ccc(Cl)cc2OC)cc(S(C)(=O)=O)c1 (stereo not shown) [Compound (a)]
Completion: 580

###

METHOD: Plasma pharmacokinetics with loading dose and weekly or twice weekly maintenance dosing, fed (Example 5)
Format: in vivo, human
RUN CONDITIONS: human, plasma, oral; Panel III (150 mg BID Days 1-2, then 300 mg Q7D; SF2a/b, fed), Day 3; read-out: Mean C72 h (SD)
OUTCOME MEASURE: concentration at 72 h (ng/mL)
Answers are plain numbers, in ng/mL.

Prompt: Look at this molecule and give its reported concentration at 72 h. COc1cc(NC(C(=O)c2c[nH]c3ccc(OC(F)(F)F)cc23)c2ccc(Cl)cc2OC)cc(S(C)(=O)=O)c1 (stereo not shown)
Completion: 1210

###

METHOD: Effect of food on plasma pharmacokinetics after single oral dose of SF2a/b (Example 2)
Format: in vivo, human
RUN CONDITIONS: both sexes, human, plasma, oral, 800 mg, Treatment E: single 800 mg (SF2b), fed, standardized breakfast; read-out: AUClast, Mean
OUTCOME MEASURE: AUC(0-t) (µg·h/mL)
One number for each entry, in µg·h/mL.

Prompt: Look at this compound and give its reported AUC(0-t). COc1cc(NC(C(=O)c2c[nH]c3ccc(OC(F)(F)F)cc23)c2ccc(Cl)cc2OC)cc(S(C)(=O)=O)c1 (stereo not shown)
Completion: 357

###

METHOD: Effect of food on plasma pharmacokinetics after single oral dose of SF2a/b (Example 2)
Assay type: in vivo, human
RUN CONDITIONS: both sexes, human, plasma, oral, 800 mg, 800 mg SF2b, fasted; read-out: AUC∞, Geometric LS Means Treatment J
OUTCOME MEASURE: AUC(0-inf) (µg·h/mL)
Give bare numbers, in µg·h/mL.

Prompt: Look at this molecule and give its reported AUC(0-inf). COc1cc(NC(C(=O)c2c[nH]c3ccc(OC(F)(F)F)cc23)c2ccc(Cl)cc2OC)cc(S(C)(=O)=O)c1 (stereo not shown)
Completion: 110

###

METHOD: Plasma pharmacokinetics with loading dose and weekly or twice weekly maintenance dosing, fed (Example 5)
Format: in vivo, human
RUN CONDITIONS: human, plasma, oral, Panel II (450 mg BID Days 1-2, then 450 mg Q3D/Q4D; SF2a/b, fed), Day 2; read-out: tmax
OUTCOME MEASURE: Tmax (h)
Give bare numbers, in h.

Prompt: Look at this molecule and give its reported Tmax. COc1cc(NC(C(=O)c2c[nH]c3ccc(OC(F)(F)F)cc23)c2ccc(Cl)cc2OC)cc(S(C)(=O)=O)c1 (stereo not shown)
Completion: 5

###

METHOD: Plasma pharmacokinetics with loading dose and weekly or twice weekly maintenance dosing, fed (Example 5)
Type: in vivo, human
RUN CONDITIONS: human, plasma, oral, 150 mg, Panel III (150 mg BID Days 1-2, then 300 mg Q7D; SF2a/b, fed), Day 2; read-out: Mean AUCτ (SD)
OUTCOME MEASURE: AUC (ng·h/mL)
Give bare numbers, in ng·h/mL.

Prompt: Look at this compound and give its reported AUC. COc1cc(NC(C(=O)c2c[nH]c3ccc(OC(F)(F)F)cc23)c2ccc(Cl)cc2OC)cc(S(C)(=O)=O)c1 (stereo not shown) [Compound (a)]
Completion: 16800

###

METHOD: Effect of food on plasma pharmacokinetics after single oral dose of SF2a/b (Example 2)
Type: in vivo, human
RUN CONDITIONS: both sexes, human, plasma, oral, 200 mg, Treatment G: single 200 mg (SF2b), fed, standardized breakfast; read-out: AUC∞, Mean
OUTCOME MEASURE: AUC(0-inf)
Quote the value and follow it with the unit of measurement.

Prompt: Look at this molecule and give its reported AUC(0-inf). COc1cc(NC(C(=O)c2c[nH]c3ccc(OC(F)(F)F)cc23)c2ccc(Cl)cc2OC)cc(S(C)(=O)=O)c1 (stereo not shown)
Completion: 106 µg·h/mL

###

METHOD: Effect of food on plasma pharmacokinetics after single oral dose of SF2a/b (Example 2)
Type: in vivo, human
RUN CONDITIONS: both sexes, human, plasma, oral, 50 mg, Treatment H: single 50 mg (SF2a), fasted; read-out: Cmax, Geo. Mean
OUTCOME MEASURE: Cmax (µg/mL)
Answers are plain numbers, in µg/mL.

Prompt: Look at this molecule and give its reported Cmax. COc1cc(NC(C(=O)c2c[nH]c3ccc(OC(F)(F)F)cc23)c2ccc(Cl)cc2OC)cc(S(C)(=O)=O)c1 (stereo not shown)
Completion: 0.195

###

METHOD: Plasma pharmacokinetics with loading dose and weekly or twice weekly maintenance dosing, fed (Example 5)
Assay type: in vivo, human
RUN CONDITIONS: human, plasma, oral, 150 mg, Panel IV (150 mg BID Days 1-2, then 150 mg Q3D/Q4D; SF2a/b, fed), Day 3; read-out: Mean Cmax (SD)
OUTCOME MEASURE: Cmax (ng/mL)
Give bare numbers, in ng/mL.

Prompt: Look at this compound and give its reported Cmax. COc1cc(NC(C(=O)c2c[nH]c3ccc(OC(F)(F)F)cc23)c2ccc(Cl)cc2OC)cc(S(C)(=O)=O)c1 (stereo not shown)
Completion: 2120
